read-out: Urokinase-type plasminogen activator receptor (uPAR), PLAUR (gene 5329); experiment: BSK_4H_uPAR: BioMAP Diversity Plus: 4H Assay for Urokinase-type plasminogen activator receptor (uPAR) Biomarker Activity (AID 2283030); details: primary human endothelial cells (HUVEC); actives raise or lower the signal
Active and inactive are the calls of the source. The calls were made as follows: active = hit-call score of the fitted dose curve at least 0.9, where 1 is the maximum; inactive = score below 0.9.

# compound, AC50
data = [
    ("CC(=NC#N)N(C)Cc1ccc(Cl)nc1", "inactive"),
    ("CC(C1CC1)C(O)(Cn1cncn1)c1ccc(Cl)cc1 (stereo unspecified)", "inactive"),
    ("C=C(C)[C@H]1Cc2c(ccc3c2O[C@@H]2COc4cc(OC)c(OC)cc4[C@@H]2C3=O)O1", "4.41 µM (active)"),
    ("CC(C)=CC1C(C(=O)OCN2C(=O)C3=C(CCCC3)C2=O)C1(C)C (stereo unspecified)", "8.64 µM (active)"),
    ("CN(C)NC(=O)CCC(=O)O", "inactive"),
    ("CCOC(=O)COc1cc(-c2nn(C)c(OC(F)F)c2Cl)c(F)cc1Cl", "inactive"),
    ("CNc1cnn(-c2cccc(C(F)(F)F)c2)c(=O)c1Cl", "inactive"),
    ("CCC(=O)Nc1ccc(Cl)c(Cl)c1", "inactive"),
    ("CCC(CC)Nc1c([N+](=O)[O-])cc(C)c(C)c1[N+](=O)[O-]", "inactive"),
    ("COc1cc(OC)nc(Sc2cccc(Cl)c2C(=O)O)n1", "inactive"),
    ("CSc1nnc(C(C)(C)C)c(=O)n1N", "inactive"),
    ("CCC(=NOC/C=C/Cl)C1=C(O)CC(C2CCOCC2)CC1=O (stereo unspecified)", "inactive"),
    ("CCCSP(=O)(OCC)Oc1ccc(Br)cc1Cl (stereo unspecified)", "inactive"),
    ("CCCCSP(=O)(SCCCC)SCCCC", "inactive"),
    ("N#CSCSC#N", "5.82 µM (active)"),
    ("CCOP(=O)(OCC)Oc1cc(C)nc(C(C)C)n1", "inactive"),
    ("CCCCOC(=O)[C@@H](C)Oc1ccc(Oc2ccc(C#N)cc2F)cc1", "inactive"),
    ("CCCCOC(=O)c1ccccc1C(=O)O", "inactive"),
    ("Nc1c(Cl)cc([N+](=O)[O-])cc1Cl", "inactive"),
    ("C[Si](Cn1cncn1)(c1ccc(F)cc1)c1ccc(F)cc1", "inactive"),
    ("COP(=O)(OC)C(O)C(Cl)(Cl)Cl (stereo unspecified)", "inactive"),
    ("CCNc1nc(Cl)nc(NC(C)(C)C#N)n1", "inactive"),
    ("CCOC(=O)CC(SP(=O)(OC)OC)C(=O)OCC (stereo unspecified)", "inactive"),
    ("CCCOCC(=Nc1ccc(Cl)cc1C(F)(F)F)n1ccnc1", "36.7 µM (active)"),
    ("CCOP(=S)(OCC)OC(Cl)C(Cl)(Cl)Cl (stereo unspecified)", "inactive"),
    ("C#CCC1=C(C)C(OC(=O)C2C(C=C(C)C)C2(C)C)CC1=O (stereo unspecified)", "inactive"),
]

====

read-out: CD69, CD69 (gene 969); assay: BSK_SAg_CD69: BioMAP Diversity Plus: SAg Assay for CD69 Biomarker Activity (AID 2283089); conditions: primary human HUVEC with PBMC; actives raise or lower the signal
Active and inactive are the calls of the source. How the source made its calls: active means hit-call score of the fitted dose curve at least 0.9, where 1 is the maximum; inactive means score below 0.9.
Outcomes: active, inactive

# compound, group
data = [
    ("CC(C)[C@H](C(=O)O[C@H](C#N)c1cccc(Oc2ccccc2)c1)c1ccc(Cl)cc1", "inactive"),
    ("CCC(=O)Nc1ccc(Cl)c(Cl)c1", "inactive"),
    ("FC(F)C(F)(F)OCC(Cn1cncn1)c1ccc(Cl)cc1Cl (configuration not stated)", "active"),
    ("CCOC(=O)CC(SP(=O)(OC)OC)C(=O)OCC (configuration not stated)", "inactive"),
    ("CCOP(=O)(NC(C)C)Oc1ccc(SC)c(C)c1 (configuration not stated)", "inactive"),
    ("CCc1cccc(CC)c1N(COC)C(=O)CCl", "active"),
    ("CCOP(=S)(OCC)SCCSCC", "inactive"),
    ("COP(=O)(OC)OC(Br)C(Cl)(Cl)Br (configuration not stated)", "active"),
    ("CCCOCC(=Nc1ccc(Cl)cc1C(F)(F)F)n1ccnc1", "active"),
    ("CCCCSP(=O)(SCCCC)SCCCC", "active"),
    ("C=C(C)[C@H]1Cc2c(ccc3c2O[C@@H]2COc4cc(OC)c(OC)cc4[C@@H]2C3=O)O1", "active"),
    ("CCOP(=S)(OCC)Oc1cc(C)nc(C(C)C)n1", "inactive"),
]
